I'd be grateful if you could share measured T/C for these entries.
tested on: L1210 leukemia ip in BDF1 mice, survival T/C; experiment: NCI In Vivo Anticancer Drug Screen. Data for tumor model L1210 Leukemia (intraperitoneal) in B6D2F1 (BDF1) mice; conditions: endpoint: mean survival time; dose: 400.0 mg/kg/injection; schedule: Q01DX009 (ip); vehicle: saline; higher = longer survival
Toxic doses and inconclusive results are not listed.

Request: Give the value of T/C reported for the following: "O=C(O)c1ccc(C(=O)c2ccccc2C(=O)O)cc1"
Response: 105 % of control

Request: Retrieve T/C measured for "O=C1/C(=C\c2ccccc2)COC/C1=C\c1ccccc1" and print it.
Response: 87 % of control

Request: Using the record for "NC(=O)NC(=O)c1ccccc1" , state its measured T/C.
Response: 106 % of control

Request: Determine its reported T/C: "COC(=O)c1ccc(Cl)cc1[N+](=O)[O-]"
Response: 100 % of control

Request: Given the compound O=CC(O)C(O)C(O)C(O)CO (stereo not given) , write its reported T/C.
Response: 107 % of control

Request: Assign T/C to the following record: COC(=O)C(N)Cc1ccc(OC(c2ccccc2)(c2ccccc2)c2ccccc2)cc1 (stereo not given)
Response: 100 % of control

Request: For the compound "CCOC(=O)c1csc(CCNC(=O)c2ccccc2)n1" , give its reported T/C.
Response: 100 % of control

Request: Tell me T/C reported for COC(=O)c1c(C)ccc2c(O)c3c(cc12)C(=O)c1c2c(cc(O)c1C3=O)C1(C)OC(C)(O2)C(O)C(N(C)C)C1O (stereo not given)
Response: 102 % of control

Request: Tell me T/C reported for "COC(=O)c1cc([N+](=O)[O-])ccc1Cl"
Response: 101 % of control

Request: Determine from records and report T/C for "C(=NC12CC3CC(CC(C3)C1)C2)c1ccccc1"
Response: 104 % of control

Request: For "O=C1NCCN1" , write its T/C.
Response: 106 % of control

Request: # return recorded T/C for input Cc1ccccc1S(=O)(=O)CC(Cl)c1ccccc1 (stereo not given)
Response: 91 % of control

Request: Using the record for "CC(=O)CCCN(CCO)CCO" , state its measured T/C.
Response: 96 % of control

Request: Name the recorded T/C of the compound listed here: "CC(=O)Nc1ccc(C)c([N+](=O)[O-])c1"
Response: 97 % of control

Request: Note T/C for the compound shown: "CC(C)(C)C(=O)CC(=O)C(C)(C)C.CC(C)(C)C(=O)CC(=O)C(C)(C)C.CC(C)(C)C(=O)CC(=O)C(C)(C)C.[Sm]"
Response: 98 % of control
